Molecular target: human SGLT2 (Homo sapiens)
Construct: expressed in transfected cells; host or cells: CHO-K1
Sequence (P31639 whole entry): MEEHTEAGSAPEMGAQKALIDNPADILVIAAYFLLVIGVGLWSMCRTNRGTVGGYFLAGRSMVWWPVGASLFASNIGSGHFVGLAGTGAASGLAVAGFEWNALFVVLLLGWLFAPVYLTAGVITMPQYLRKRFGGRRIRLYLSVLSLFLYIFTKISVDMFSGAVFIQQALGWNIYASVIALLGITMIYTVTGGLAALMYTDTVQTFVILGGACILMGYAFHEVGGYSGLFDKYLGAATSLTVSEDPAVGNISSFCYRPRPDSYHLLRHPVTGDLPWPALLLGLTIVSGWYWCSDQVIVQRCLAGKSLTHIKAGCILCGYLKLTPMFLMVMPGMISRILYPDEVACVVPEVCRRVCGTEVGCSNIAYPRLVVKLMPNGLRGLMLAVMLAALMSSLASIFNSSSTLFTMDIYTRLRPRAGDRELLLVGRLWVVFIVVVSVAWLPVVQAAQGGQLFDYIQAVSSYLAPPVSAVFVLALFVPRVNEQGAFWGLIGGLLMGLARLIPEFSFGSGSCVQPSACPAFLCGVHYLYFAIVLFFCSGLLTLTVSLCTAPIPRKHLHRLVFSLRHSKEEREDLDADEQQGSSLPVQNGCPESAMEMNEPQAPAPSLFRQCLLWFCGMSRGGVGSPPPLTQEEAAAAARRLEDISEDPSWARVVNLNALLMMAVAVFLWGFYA
Assay: Inhibitory activity against methyl-α-D-glucopyranoside uptake, CHO cells stably expressing human SGLT2
Format: cell-based
Conditions: inhibition of SGLT2, Table 2-1; read-out: IC50 value
Measurement label: IC50
Output should be the measured figure followed by the unit it is expressed in.

Take a look at these entries with their results.
CCOc1ccc(Cc2cc3c(cc2Cl)CO[C@]32O[C@H](CO)[C@@H](O)[C@H](O)[C@H]2O)cc1; 1.5 nM
CCOc1ccc(Cc2cc3c(cc2C)CO[C@]32O[C@H](CO)[C@@H](O)[C@H](O)[C@H]2O)cc1; 1.8 nM
OC[C@H]1O[C@]2(OCc3cc(Cl)c(Cc4cccs4)cc32)[C@H](O)[C@@H](O)[C@@H]1O; 1.3 nM

Please list IC50 recorded for the molecule CCCc1ccc(Cc2cc3c(cc2C)CO[C@]32O[C@H](CO)[C@@H](O)[C@H](O)[C@H]2O)cc1
2.3 nM
